Attribute: protein stability index
B1: ZBED2 (parent)
chain: RAGHHPNQYATCRLCGRQVSRGPG

Variants of: B1
Assay: protein stability index of a GFP-peptide fusion (GPS, HEK-293T) (PSI 1-6); higher = more stable;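 further: lentivirally expressed fusions sorted by FACS into six bins by GFP to DsRed ratio, PSI derived from sequencing read proportions per bin multiplied by bin number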
Settings: c terminus: a fixed tail appended

Here are 4 variants together with their reported answers.
Y9P = 3.34
G24D = 1.7
C12E = 3.66
H4T = 2.78

Determine from records and report protein stability index for P23Y 1.54

Determine from records and report protein stability index for C12P 2.98

Determine from records and report protein stability index for L14Q 1.15

Determine from records and report protein stability index for G24I 2.11

Determine from records and report protein stability index for G16E 2.46

Determine from records and report protein stability index for A10T 2.78

Determine from records and report protein stability index for A10K 1.67

Determine from records and report protein stability index for P23Q 2.11
